method.notes: Biodistribution of deuterated 2-deoxy-D-glucose, 2H-NMR of tissue extracts, mice
Format: in vivo, mouse
recorded.conditions: [D4]DDG bolus i.v., 43-45 mg/kg (non-labeled 2DG equivalent), n=2; read-out: concentration in the liver
measurement.name: concentration (µM)
All answers are understood in µM, so give the number only.

query: So what's the measured concentration for this one? [2H]C([2H])(O)[C@H]1OC(O)C[C@@]([2H])(O)[C@]1([2H])O (stereo partly drawn) [[D4]DDG, [3,4,6,6-D4]2-deoxy-D-glucose]
result: 230

----------
method.notes: Biodistribution of deuterated 2-deoxy-D-glucose, 2H-NMR of tissue extracts, mice
Type: in vivo, mouse
recorded.conditions: [D4]DDG bolus i.v., 43-45 mg/kg (non-labeled 2DG equivalent), n=1; read-out: concentration in the kidneys
measurement.name: concentration (µM)
The figure you give is taken to be in µM; do not add the unit.

query: # concentration lookup, item [2H]C([2H])(O)[C@H]1OC(O)C[C@@]([2H])(O)[C@]1([2H])O (stereo partly drawn) [[D4]DDG, [3,4,6,6-D4]2-deoxy-D-glucose]
result: 1790
